Values were extracted from patent US20240116985A1.

test: CHI Log D procedure; format: physicochemical; settings: pH 7.4
A collection of molecules and their measured chromatographic logD

| MOLECULE | chromatographic logD |
| --- | --- |
| CC(=O)N[C@@H](Cc1ccccc1)C(=O)N[C@@H](CC(=O)O)C(=O)N[C@@H](C)C(=O)N[C@]1(C)CCCCCCC=CCOC(=O)N2CC[C@@](C(=O)N[C@@H](Cc3ccccc3)C(=O)N[C@@H](Cc3c[nH]c4ccccc34)C(=O)N[C@@H](CCC(N)=O)C(N)=O)(C2)NC(=O)[C@H](C(C)C)NC(=O)[C@H](Cc2ccccc2)NC(=O)[C@H](C)NC(=O)[C@H](C)NC(=O)[C@H](CCc2ccccc2)NC(=O)[C@H](CC(=O)O)NC1=O (single isomer, unassigned) | 2.08 |
| CC[C@H](C)[C@@H]1NC(=O)[C@H](CC(=O)O)NC(=O)[C@]2(CC=CCCCC3(CCCC=CCCCCCC[C@@](C)(C(=O)N[C@@H](Cc4ccccc4)C(=O)N[C@@H](Cc4csc5ccccc45)C(=O)N[C@@H](CCC(N)=O)C(N)=O)NC(=O)[C@H](CCCCNC(=O)CN=[N+]=[N-])NC(=O)[C@H](Cc4ccccc4)NC(=O)[C@H](C)NC(=O)[C@H](C)NC(=O)[C@H](CCC(=O)O)NC(=O)[C@H](CC(=O)O)NC3=O)NC1=O)CCCN2C(C)=O (some centres unmarked) | 2.61 |
